- Assay system: BRD4 BD2 (Homo sapiens)
- Protocol summary: AlphaScreen binding assay, BRD4 Bromodomain 2
pIC50: −log10 of the molar value.
Value type: pIC50

Some compounds with recorded pIC50:
CC(=O)N1c2ccccc2N(Cc2ccccc2)C[C@@H]1C [Example I-909] = 6.30 to 7.30
CC(=O)N1c2ccc(-c3ccc(C(=O)NC4CC4)cc3)cc2N(C(=O)c2ccco2)C[C@@H]1C [Example I-292] = < 6.30

Consider the additional compound presented here.
Looking for the measured pIC50 of CC(=O)N1c2ccc(-c3cccc(C(=O)NC4CC4)c3)cc2N(C(=O)c2ccco2)C[C@@H]1C [Example I-802] , can you help?
> 7.30

----------
- Assay system: BRD4 BD2 (Homo sapiens, UniProt O60885)
- Protocol summary: AlphaScreen binding assay, BRD4 Bromodomain 2
Value type: IC50

CC(=O)N1c2ccc(-c3ccc(NS(C)(=O)=O)c(C)c3)cc2N(C(=O)OC(C)C)C[C@@H]1C = 50 to 500 nM
CC(=O)N1c2ccc(-c3cnn(C4CCNCC4)c3)cc2N(C(=O)OC2CCCCC2)C[C@@H]1C = 50 to 500 nM
COC(=O)N1c2ccc(-c3cn(C)nn3)cc2N(C(=O)C2CC2)C[C@@H]1C = 50 to 500 nM
CC(=O)N1c2ccc(-c3ccc(S(N)(=O)=O)c(F)c3)cc2N(C(=O)OC(C)C)C[C@@H]1C = 50 to 500 nM
CCOC(=O)N1C[C@H](C)N(C(=O)OC)c2ccc(-c3cnn(C4CC4)c3)cc21 = > 500 nM
CC(=O)N1c2ccc(-c3cnn(CCN4CCOCC4)c3)cc2N(C(=O)OC(C)C)C[C@@H]1C = 50 to 500 nM

Looking for the measured IC50 of C[C@H]1CN(C(=O)c2ccco2)c2cc(-c3ccc(S(C)(=O)=O)cc3)ccc2N1C(=O)CO , can you help?
> 500 nM

Looking for the measured IC50 of CC(=O)N1c2ccc(-c3cnn(C4CC4)c3)cc2N(C(=O)Oc2ccc(Cl)cc2)C[C@@H]1C , can you help?
< 50 nM

Looking for the measured IC50 of C[C@H]1CN(C(=O)C2CC2)c2cc(-c3ccc(C(=O)NCCN)cc3)ccc2N1C(=O)C1CC1 , can you help?
50 to 500 nM

Looking for the measured IC50 of CC(=O)N1c2ccccc2N(C(=O)c2cc3ccccc3n2C)C[C@@H]1C , can you help?
> 500 nM

Looking for the measured IC50 of CCCOC(=O)N1C[C@H](C)N(C(C)=O)c2ccc(-c3ccc(S(C)(=O)=O)cc3)cc21 , can you help?
50 to 500 nM

Looking for the measured IC50 of COc1cc(F)ccc1-c1ccc2c(c1)N(C(=O)c1ccco1)C[C@H](C)N2C(C)=O , can you help?
> 500 nM

Looking for the measured IC50 of CC(=O)N1c2ccc(-c3cnn(C4CC4)c3)cc2N(c2nn(C)c3cnccc23)C[C@@H]1C , can you help?
< 50 nM

Looking for the measured IC50 of CC(=O)N1c2ccc(-c3ccc(S(C)(=O)=O)cc3)cc2N(C(=O)c2ccc(-c3ccccc3)o2)C[C@@H]1C , can you help?
50 to 500 nM

Looking for the measured IC50 of COC(=O)N1c2ccc(-c3cnn(CCC#N)c3)cc2N(C(=O)Oc2ccc(F)cc2)C[C@@H]1C , can you help?
< 50 nM

Looking for the measured IC50 of COC(=O)N1c2ccc(-c3cnn(Cc4cnccn4)c3)cc2N(C(=O)OC(C)C)C[C@@H]1C , can you help?
50 to 500 nM

Looking for the measured IC50 of CCC[C@@H](C)CN1C[C@H](C)N(C(C)=O)c2ccccc21 , can you help?
> 500 nM

Looking for the measured IC50 of CC(=O)N1c2ccc(-c3cnn(C4CC4)c3)cc2N(C(=O)Oc2cccc3ccccc23)C[C@@H]1C , can you help?
< 50 nM

Looking for the measured IC50 of CCS(=O)(=O)c1cccc(-c2ccc3c(c2)N(C(=O)C2CCC2)C[C@H](C)N3C(C)=O)c1 , can you help?
50 to 500 nM

----------
# IC50 listing for each entry below
- Assay system: BRD4 BD1 (Homo sapiens, UniProt O60885)
- Protocol summary: AlphaScreen binding assay, BRD4 Bromodomain 1

CC(=O)N1c2ccc(-c3ccc(NS(=O)(=O)C4CC4)cc3)cc2N(C(=O)c2ccco2)C[C@@H]1C [Example I-287] = 100 to 1000 nM

Looking for the measured IC50 of CC(=O)N1c2ccc(-c3cnn(C4CC4)c3)cc2N(C(=O)Oc2c(Cl)cc(Cl)c3cccnc23)C[C@@H]1C [Example I-1197] , can you help?
1000 to 10000 nM

Looking for the measured IC50 of CC(=O)N1c2ccc(-c3ccc(F)c(S(C)(=O)=O)c3)cc2N(C(=O)OC2CCOCC2)C[C@@H]1C [Example I-1250] , can you help?
1000 to 10000 nM

Looking for the measured IC50 of CC(=O)N1c2ccc(-c3cnn(CCO)c3)cc2N(C(=O)C2CC2)C[C@@H]1C [Example I-342] , can you help?
1000 to 10000 nM

Looking for the measured IC50 of COc1ccc(-c2ccc3c(c2)N(C(=O)OC2CCCCC2)C[C@H](C)N3C(C)=O)cc1NS(C)(=O)=O [Example I-1271] , can you help?
100 to 1000 nM

Looking for the measured IC50 of CC(=O)N1c2ccccc2N(C(=O)Cc2nc(-c3ccccc3)oc2C)C[C@@H]1C [Example I-769] , can you help?
> 10000 nM

Looking for the measured IC50 of CC(=O)N1c2ccc(-c3ccc(S(N)(=O)=O)c(F)c3)cc2N(C(=O)C2CC2)C[C@@H]1C [Example I-1297] , can you help?
1000 to 10000 nM

Looking for the measured IC50 of CC(=O)N1c2ccc(-c3cnn(C4CCOCC4)c3)cc2N(C(=O)OC(C)C)C[C@@H]1C [Example I-307] , can you help?
100 to 1000 nM

Looking for the measured IC50 of CC(=O)N1c2ccc(-c3ccc(S(C)(=O)=O)cc3)cc2N(C(=O)OC2CC(F)(F)C2)C[C@@H]1C [Example I-5] , can you help?
100 to 1000 nM

Looking for the measured IC50 of CCS(=O)(=O)c1cccc(-c2ccc3c(c2)N(C(=O)OC2CCCCC2)C[C@H](C)N3C(C)=O)c1 [Example I-1245] , can you help?
100 to 1000 nM

Looking for the measured IC50 of COC(=O)N1c2ccc(-c3cnn(CC4COC4)c3)cc2N(C(=O)OC(C)C)C[C@@H]1C [Example I-644] , can you help?
100 to 1000 nM

Looking for the measured IC50 of CC(=O)N1c2ccc(-c3ccc(S(=O)(=O)N(C)C)cc3)cc2N(C(=O)C2CC2)C[C@@H]1C [Example I-1123] , can you help?
1000 to 10000 nM

----------
# IC50 listing for each entry below
- Assay system: BRD4 BD1 (Homo sapiens, UniProt O60885)
- Protocol summary: AlphaScreen binding assay, BRD4 Bromodomain 1

Kindly state the measured IC50 obtained for CC(=O)N1c2ccccc2N(S(=O)(=O)c2cccc(C)c2)C[C@@H]1C with BRD4 BD1 (Homo sapiens, UniProt O60885).
> 10 µM

Kindly state the measured IC50 obtained for CC(=O)N[C@@H]1CCN(C(=O)c2ccc(-c3ccc4c(c3)N(C(=O)OC(C)C)C[C@H](C)N4C(C)=O)cc2)C1 with BRD4 BD1 (Homo sapiens, UniProt O60885).
< 0.1 µM

Kindly state the measured IC50 obtained for CC(=O)N1c2ccccc2N(C(=O)c2cc3n(n2)CCC3)C[C@@H]1C with BRD4 BD1 (Homo sapiens, UniProt O60885).
> 10 µM

Kindly state the measured IC50 obtained for CC(C)C(=O)N1c2ccc(-c3ccc(S(C)(=O)=O)cc3)cc2N(C(=O)c2ccco2)C[C@@H]1C with BRD4 BD1 (Homo sapiens, UniProt O60885).
> 10 µM

----------
- Assay system: BRD4 BD1 (Homo sapiens, UniProt O60885)
- Protocol summary: AlphaScreen binding assay, BRD4 Bromodomain 1
# IC50 listing for each entry below

Looking for the measured IC50 of CC(=O)N1c2ccc(-c3cnn(C4CC4)c3)cc2N(C(=O)Oc2ccccc2F)C[C@@H]1C , can you help?
100 to 1000 nM

Looking for the measured IC50 of CC(=O)N1c2ccc(-c3cnn(C4COC4)c3)cc2N(C(=O)OC2(C)CC2)C[C@@H]1C , can you help?
1000 to 10000 nM

Looking for the measured IC50 of CC(=O)N1c2ccc(-c3cnn(C4CC4)c3)cc2N(c2nn(C)c3cccnc23)C[C@@H]1C , can you help?
1000 to 10000 nM

Looking for the measured IC50 of CC(=O)N1c2ccc(-c3ccc(C(=O)N4C[C@H]5CCN(C)[C@H]5C4)cc3)cc2N(C(=O)OC(C)C)C[C@@H]1C , can you help?
100 to 1000 nM
